Known Inhibition percent of a selection of compounds
- Measured target: MeCP2-TBL1 interaction (MeCP2-SmBiT / TBL1-LgBiT) (Mus musculus, UniProt Q9QXE7)
- Construct: expressed in transfected cells; crude lysate used as a cell-free assay
- Sequence (Q9QXE7 166-527): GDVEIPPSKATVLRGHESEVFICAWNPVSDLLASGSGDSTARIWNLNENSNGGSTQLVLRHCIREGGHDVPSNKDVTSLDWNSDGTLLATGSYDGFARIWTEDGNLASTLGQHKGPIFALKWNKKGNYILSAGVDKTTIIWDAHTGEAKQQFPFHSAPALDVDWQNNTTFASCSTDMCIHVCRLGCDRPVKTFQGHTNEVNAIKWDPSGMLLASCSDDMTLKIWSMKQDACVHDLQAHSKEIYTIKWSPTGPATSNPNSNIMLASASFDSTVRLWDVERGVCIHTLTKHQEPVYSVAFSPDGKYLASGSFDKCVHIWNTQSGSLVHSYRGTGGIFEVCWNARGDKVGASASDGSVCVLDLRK
- Experimental protocol: MeCP2-TBL1 NanoLuc luciferase complementation assay (cell-free, extracts of transfected HEK293 cells);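 on Inhibition percent: each compound tested at 20 µM final concentration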
- Type: binding, human
- Conditions: primary screen of the Asinex library, sheet "Sargen output Asinex library", one well per compound, Batch Ref. 1
Property measured: Inhibition percent (%)

# Compound, Endpoint result
data = [
    ("COc1ccccc1C(=O)N1CCC2(CC1)Oc1ccc(Cl)cc1[C@H]1OCCC[C@@H]12 [BDG_33900472]", 10.01),
    ("CC(=O)N1CCC(Cc2cc(-c3ccccc3)no2)(C(=O)Nc2ccccc2OC(C)C)C1 (stereo not drawn) [BDF_23076638]", 1.76),
    ("COc1ccc(NC(=O)CN2[C@H]3CCCCC(=O)N[C@@]3(C)C[C@H]2c2cccc(OC)c2)cc1 [BDH_33626569]", -0.22),
    ("CC(=O)N[C@@]12CN(CC(=O)Nc3ccc4nc(C)[nH]c4c3)CC[C@@H]1[C@@H](c1ccccc1)N(C(C)=O)C2 [BDH_33616134]", 1.14),
    ("C[C@]12C[C@@H]3N[C@H]1CCC[C@H]2N(Cc1ccccc1C(=O)O)[C@H]3Cc1ccccc1 [BDG_33391350]", -0.20),
    ("COc1ccc(C2(C(=O)N3CCCCC3CCNC(=O)c3ccccc3)CCCC2)cc1 (stereo not drawn) [BDH_32336950]", 6.01),
]

====

Known Inhibition percent of a selection of compounds
- Measured target: MeCP2-TBL1 interaction (MeCP2-SmBiT / TBL1-LgBiT) (Mus musculus)
- Construct: expressed in transfected cells; crude lysate used as a cell-free assay
- Experimental protocol: MeCP2-TBL1 NanoLuc luciferase complementation assay (cell-free, extracts of transfected HEK293 cells);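 on Inhibition percent: each compound tested at 20 µM final concentration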
- Type: binding, human
- Conditions: primary screen of the Asinex library, sheet "Sargen output Asinex library", one well per compound, Batch Ref. 1
Property measured: Inhibition percent (%)

# Compound, Endpoint result
measured = [
    ("Cc1cnn(CC(=O)N2CCC3(C/C=C/CCOc4ccccc4C(=O)NCCCNC3=O)CC2)c1", 1.29),
    ("COCCNC(=O)c1sc2ccccc2c1C1CN(C(=O)C(C)(C)OC)CCO1 (stereo not shown)", -2.46),
    ("COc1ccc([C@@H]2C[C@]3(C)NC(=O)CCC[C@@H]3N2CC(=O)Nc2cccc(F)c2)cc1", -3.72),
    ("COc1ccc([C@@H]2C[C@]3(C)NC(=O)CCC[C@@H]3N2CC(=O)Nc2ccc(OC(F)F)cc2)cc1", -1.08),
    ("CC1(C)Oc2ccccc2[C@H]2OCC3(CCN(C(=O)c4cccc(-n5cnnc5)c4)CC3)C[C@@H]21", 0.97),
    ("O=C(O)c1ccccc1-c1ccc(CN2CCCC2c2ccncn2)cc1 (stereo not shown)", -2.12),
    ("O=C1CCCC[C@]2(CN(Cc3ccnc(N4CCCCC4)n3)C[C@H]2c2cccc(F)c2)N1", 1.21),
    ("Cn1c(COCC(=O)N2[C@H](Cc3ccccc3)C[C@]3(C)NC(=O)CCC[C@H]23)nc2ccccc21", -0.52),
    ("O=C1NCCNC(=O)C2(C/C=C/COc3ccccc31)CCN(C(=O)CCc1cccs1)CC2", 4.94),
    ("COc1ccc(CN(C)[C@@H]2[C@@H](O)[C@H](Oc3cccc(F)c3)C[C@H]2NC(=O)CCC(N)=O)cc1", -0.09),
    ("COC(=O)c1ccc(NC(=O)c2cccc(Br)c2OCC(=O)O)cc1", 7.09),
    ("O=C(c1cc(-c2ccccc2F)n[nH]1)N1CCCCC1c1ncc(Cc2ccccc2)o1 (stereo not shown)", 6.68),
    ("CC1(C)Oc2ccccc2[C@@H]2O[C@@H]3CCN(C(=O)c4cccc(Cn5ccnc5)c4)C[C@@H]3C[C@H]21", 1.73),
    ("CCCN1CCN(C(=O)c2c[nH]cn2)CC(Cc2ccccc2-c2ccccc2OC)C1=O (stereo not shown)", 0.35),
    ("CC1(C)Oc2ccc(O)cc2[C@H]2O[C@@H](c3ccccc3)CC[C@@H]21", 6.48),
    ("CC(=O)Nc1ccc(C(=O)N2CCOC(c3cccc(Cc4ccccc4Cl)n3)C2)cc1 (stereo not shown)", 0.59),
]

====

Known IC50 of a selection of compounds
- Measured target: MeCP2-TBL1 interaction (MeCP2-SmBiT / TBL1-LgBiT) (Mus musculus)
- Construct: crude lysate used as a cell-free assay
- Experimental protocol: MeCP2-TBL1 NanoLuc luciferase complementation assay (cell-free, extracts of transfected HEK293 cells)
- Conditions: dose response 0.3–60 μM, triplicate, 30 min, luminescence normalized to DMSO; read-out: IC50, inhibition of MeCP2-TBL1 luminescence signal

# Compound, IC50 (µM)
measured = [
    ("C[C@H]1CC[C@H]2[C@H](O1)c1cc(OCC(=O)NCc3ccccc3)ccc1OC2(C)C [BDG 34039627]", 18),
    ("CCNC(=O)c1noc(-c2cc(C(C)C)c(O)cc2O)c1-c1ccc(CN2CCOCC2)cc1 [luminespib, reference compound]", 31),
    ("CN(C)Cc1cccc(N/C(=C2\\C(=O)Nc3cc(C(=O)N(C)C)ccc32)c2ccccc2)c1 [BIX02189, reference compound]", 28),
    ("C=C1C(=O)[C@]23[C@H](O)[C@H]1CC[C@H]2[C@@]12CO[C@]3(O)[C@@H](O)[C@@H]1C(C)(C)CC[C@@H]2O [oridonin, reference compound]", 34),
]

====

Known Inh (PKA) of a selection of molecules
- Test system: PRKACA-PRKAR2A interaction (SmBiT-PRKACA / LgBiT-PRKAR2A), protein kinase A
- Parameters: NanoLuc complementation counter-screen in cell extract, PRKACA with PRKAR2A, loss of luminescence, detects NanoLuc interference
- Conditions: counter-screen for NanoLuc interference; 0.5 h, 20 µM; inhibitor
Structures can show the parent of a compound that is named as a salt.

# Molecule, Inh (PKA), %
measured = [
    ("O=c1ncccn1[C@@H]1O[C@H](CO)[C@@H](O)[C@H]1O", -0.4631),
    ("CCc1nc(N)nc(N)c1-c1ccc(Cl)cc1", 0.5127),
    ("COc1c(N2C[C@@H]3CCCN[C@@H]3C2)c(F)cc2c(=O)c(C(=O)O)cn(C3CC3)c12 [UM0141881:01, Moxifloxacin HCl]", 1.366),
    ("CC(=O)Oc1cc(C(F)(F)F)ccc1C(=O)O", 6.12),
    ("CC(C)(C)c1cc(C(=O)/C(C#N)=N/Nc2cccc(Cl)c2)no1", 77.71),
    ("CC1=C(C(=O)Nc2cc3cn[nH]c3cc2F)C(c2ccc(C(F)(F)F)cc2)CC(=O)N1 (centres unmarked) [UM0141898:01, GSK429286A]", 8.844),
    ("FC(F)(F)Oc1ccc2nc(-c3ccc(OCCOCCOc4ccc(-c5nc6ccc(OC(F)(F)F)cc6[nH]5)nc4)cn3)[nH]c2c1", 39.19),
    ("CCOC(=O)Nc1cc(-c2ccc(C)c(NS(C)(=O)=O)c2)nn2c(C)nnc12", 9.043),
]

====

Known Inhibition percent of a selection of molecules
- Measured target: MeCP2-TBL1 interaction (MeCP2-SmBiT / TBL1-LgBiT) (Mus musculus)
- Construct: expressed in transfected cells; crude lysate used as a cell-free assay
- Experimental protocol: MeCP2-TBL1 NanoLuc luciferase complementation assay (cell-free, extracts of transfected HEK293 cells);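 on Inhibition percent: each compound tested at 20 µM final concentration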
- Assay type: binding, human
- Conditions: primary screen of the Asinex library, sheet "Sargen output Asinex library", one well per compound, Batch Ref. 1

# Molecule, Unit name, Inhibition percent
data = [
    ("O=C(NCCC1CCCCN1C(=O)CCn1cnc2ccccc21)c1ccccc1 (centres unmarked) [BDH_33631954]", "%", -1.65),
    ("O=C(c1ccccn1)N1CCCC1c1cccc(Cc2ccc(C(F)(F)F)cc2)n1 (centres unmarked) [BDD_27852665]", "%", -2.94),
    ("CCOc1ccc(CN2CCCC2c2ncc(C(=O)NCc3ccc(F)cc3)c(C)n2)cc1 (centres unmarked) [BDC_23170699]", "%", -3.60),
    ("COc1cccc(-c2cc(C(=O)N3CCCCC3c3ncc(Cc4ccccc4OC)o3)[nH]n2)c1 (centres unmarked) [BDE_33513613]", "%", 18.16),
    ("CC1(C)Oc2ccccc2[C@H]2OCC3(CCN(C(=O)CCc4cccnc4)CC3)C[C@@H]21 [BDG_33692190]", "%", -1.50),
    ("O=C(c1ccnc(Cc2ccccc2F)c1)N1CCC(Cc2nccnc2-c2ncc[nH]2)CC1 [BDH_33521693]", "%", 0.97),
    ("NC(=O)c1cc(C2CN(C(=O)c3ccnc(N4CCCCC4)c3)CCO2)nc2ccccc12 (centres unmarked) [BDD_24083754]", "%", -2.41),
    ("CC1(C)Oc2ccccc2[C@H]2OCC3(CCN(C(=O)c4[nH]nc5c4CCCCC5)CC3)C[C@@H]21 [BDG_33694755]", "%", 2.01),
]

// provenance: paper PMC9995496
